Biological target: T1, deglycosylated V domain of human CD33 (human, UniProt P20138 18-139, limits assumed, N-glycans removed by PNGase)
T1 construct: V domain deglycosylated by PNGase before testing; also called deglycosylated V CD33
Test: SPR, Fab captured, 37C;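 also: biacore 8K surface plasmon resonance with Fabs held on an amine-coupled anti-Fab antibody surface, soluble monomeric CD33 domain injected as analyte, double-referenced 1:1 binding fit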
Strictly below 60 nM in Kd: rule met. Otherwise: rule not met.

[[record]]
binder = "ADI-11809 Fab (Fab, V domains shown, Fab fragment; also called Ab6) VH: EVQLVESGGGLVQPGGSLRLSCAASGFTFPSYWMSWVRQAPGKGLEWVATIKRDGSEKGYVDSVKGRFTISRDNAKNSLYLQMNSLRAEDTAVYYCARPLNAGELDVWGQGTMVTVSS VL: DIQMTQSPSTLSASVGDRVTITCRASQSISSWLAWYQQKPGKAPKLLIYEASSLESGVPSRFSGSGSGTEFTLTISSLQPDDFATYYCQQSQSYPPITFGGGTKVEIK"
classification = "rule met"

[[record]]
binder = "ADI-11839 Fab (Fab, V domains shown, Fab fragment; also called Ab28) VH: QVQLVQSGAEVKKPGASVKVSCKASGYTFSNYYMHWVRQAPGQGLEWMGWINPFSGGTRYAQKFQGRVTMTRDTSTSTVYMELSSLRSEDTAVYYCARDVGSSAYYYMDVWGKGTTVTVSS VL: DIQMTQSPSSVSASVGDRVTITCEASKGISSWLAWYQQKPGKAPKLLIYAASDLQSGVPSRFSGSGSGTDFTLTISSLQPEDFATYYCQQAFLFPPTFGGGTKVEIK"
classification = "rule not met"

[[record]]
binder = "ADI-10157 Fab (Fab, V domains shown, Fab fragment; also called Ab13) VH: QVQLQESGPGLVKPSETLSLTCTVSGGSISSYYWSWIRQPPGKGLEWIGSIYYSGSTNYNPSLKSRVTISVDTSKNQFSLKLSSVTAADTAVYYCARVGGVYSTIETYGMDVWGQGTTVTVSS VL: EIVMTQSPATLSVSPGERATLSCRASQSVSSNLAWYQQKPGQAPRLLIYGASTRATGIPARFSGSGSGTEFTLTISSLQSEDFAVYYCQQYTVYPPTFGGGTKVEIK"
classification = "rule not met"

[[record]]
binder = "ADI-11828 Fab (Fab, V domains shown, Fab fragment; also called Ab27) VH: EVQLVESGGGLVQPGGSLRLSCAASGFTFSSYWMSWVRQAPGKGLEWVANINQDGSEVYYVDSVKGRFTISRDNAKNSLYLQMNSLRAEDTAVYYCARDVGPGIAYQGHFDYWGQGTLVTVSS VL: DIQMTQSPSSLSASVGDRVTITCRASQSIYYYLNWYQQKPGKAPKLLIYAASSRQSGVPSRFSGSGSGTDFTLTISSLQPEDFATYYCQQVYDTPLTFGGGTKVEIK"
classification = "rule met"

[[record]]
binder = "ADI-11776 Fab (Fab, V domains shown, Fab fragment; also called Ab3; H76) VH: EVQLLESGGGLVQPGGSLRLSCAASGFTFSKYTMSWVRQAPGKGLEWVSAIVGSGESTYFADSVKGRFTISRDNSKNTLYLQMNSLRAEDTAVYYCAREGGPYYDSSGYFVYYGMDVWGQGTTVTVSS VL: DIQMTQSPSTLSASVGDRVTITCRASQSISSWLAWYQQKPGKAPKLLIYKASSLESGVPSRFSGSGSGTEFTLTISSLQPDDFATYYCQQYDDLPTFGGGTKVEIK"
classification = "rule met"

[[record]]
binder = "ADI-11830 Fab (Fab, V domains shown, Fab fragment; also called Ab9) VH: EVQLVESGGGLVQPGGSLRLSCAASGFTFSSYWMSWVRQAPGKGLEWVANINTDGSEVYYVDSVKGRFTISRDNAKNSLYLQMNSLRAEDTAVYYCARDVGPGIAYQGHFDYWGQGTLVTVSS VL: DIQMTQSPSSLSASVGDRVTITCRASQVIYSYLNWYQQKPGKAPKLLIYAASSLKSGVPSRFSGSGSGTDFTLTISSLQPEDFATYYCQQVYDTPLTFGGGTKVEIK"
classification = "rule met"

[[record]]
binder = "ADI-10164 Fab (Fab, V domains shown, Fab fragment; also called Ab18) VH: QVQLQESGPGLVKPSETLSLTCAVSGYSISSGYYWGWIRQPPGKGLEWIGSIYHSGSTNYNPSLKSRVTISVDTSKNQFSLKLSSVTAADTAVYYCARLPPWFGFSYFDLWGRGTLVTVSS VL: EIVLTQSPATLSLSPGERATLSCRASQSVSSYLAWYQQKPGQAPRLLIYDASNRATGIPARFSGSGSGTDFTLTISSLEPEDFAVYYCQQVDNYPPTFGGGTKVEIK"
classification = "rule not met"

